Test system: Plasmodium falciparum
Test: Relative antimalarial activity compared to artemisinin against Plasmodium falciparum W-2
Type: functional
Mark class 1 only when Relative activity stays strictly below 0.3. Values equal to the cut-off are class 0.

{"compound": "C[C@@H]1CC[C@H]2[C@@H](CC#N)C(=O)O[C@@H]3O[C@@]4(C)CC[C@@H]1[C@]32OO4", "class name": "class 1"}
{"compound": "C[C@@H]1CC[C@H]2[C@@H](CCC(=O)C(C)(C)C)C(=O)O[C@@H]3OC4(C)CC[C@@H]1[C@]32OO4 (single isomer, unassigned)", "class name": "class 0"}
{"compound": "C[C@@H]1CC[C@H]2[C@H](CC3C=CC(=O)O3)C(=O)O[C@@H]3OC4(C)CC[C@@H]1[C@]32OO4 (single isomer, unassigned)", "class name": "class 1"}
{"compound": "C[C@@H]1CC[C@H]2[C@H](CC#N)C(=O)O[C@@H]3OC4(C)CC[C@@H]1[C@]32OO4 (single isomer, unassigned)", "class name": "class 1"}
{"compound": "C[C@@H]1CC[C@H]2[C@@H](CC3C=CC(=O)O3)C(=O)O[C@@H]3OC4(C)CC[C@@H]1[C@]32OO4 (single isomer, unassigned)", "class name": "class 1"}
{"compound": "C[C@@H]1CC[C@H]2[C@@H](CC3CCCC3=O)C(=O)O[C@@H]3OC4(C)CC[C@@H]1[C@]32OO4 (single isomer, unassigned)", "class name": "class 1"}
{"compound": "C[C@@H]1CC[C@H]2[C@H](CCC(=O)C(C)(C)C)C(=O)O[C@@H]3OC4(C)CC[C@@H]1[C@]32OO4 (single isomer, unassigned)", "class name": "class 0"}
{"compound": "C[C@@H]1CC[C@H]2[C@@H](CC/C(=C/C(=O)c3ccccc3)c3ccccc3)C(=O)O[C@@H]3OC4(C)CC[C@@H]1[C@]32OO4 (single isomer, unassigned)", "class name": "class 0"}
{"compound": "C=CCC[C@H]1C(=O)O[C@@H]2OC3(C)CC[C@H]4[C@H](C)CC[C@@H]1[C@@]24OO3 (single isomer, unassigned)", "class name": "class 0"}

Taken from ChEMBL document CHEMBL1133239.
